// provenance: patent US20240158475A1

- TARGET_ENTITY: DN-III quality control recombinant protein (produced by Fapon Biotech InC.) (dengue virus)
- PROTOCOL: BLI, AMC sensor, antibody captured
Exercise: for every item that follows, state its recorded koff.
Answers are plain numbers, in s⁻¹.

Below: 4 binders and their reported koff.
[[record]]
binder = "Mutation 1-13 (antibody, V domains shown) VH: EVQLQQSGTELVRPGALVKLSCKASGFNIKDYYIHWVKQRPRQGLEWIGWIDPENGKTIYDPKFQDKASITSDTSTNTAYLQLRSLTSEDTAVYYCVTAYYRFVYWGQGTLVTVSA VL: QIVLTQSPAIMSAFPGERVTMTCSASSSVRYMYWHQQKPGSSPRLLIYDTSNLASGVPVRFSGSGSGTSYSLTISRDEAMDAATYYCQQWSSYPRTFGGGTKLEIKR"
quantity = "koff"
observed_measurement = "2.08e-05"

[[record]]
binder = "Mutation 1-19 (antibody, V domains shown) VH: EVQLQQSGTELVRPGALVKLSCKASGFNIKDYYIHWVKQRPRQGLEWIGWIDPENGKTIYDPKFQDKASITSDTSTNTAYLQLRSLTSEDTAVYYCVSAYFRFVYWGQGTLVTVSA VL: QIVLTQSPAIMSAFPGERVTMTCSASTSVRYMYWHQQKPGSSPRLLIYDTSNVASGVPVRFSGSGSGTSYSLTISRDEAMDAATYYCQQWSSYPRTFGGGTKLEIKR"
quantity = "koff"
observed_measurement = "4.34e-05"

[[record]]
binder = "Mutation 1-14 (antibody, V domains shown) VH: EVQLQQSGTELVRPGALVKLSCKASGFNIKDYYLHWVKQRPRQGLEWIGWIDPENGKTLYDPKFQDKASITSDTSTNTAYLQLRSLTSEDTAVYYCVSAYVRFVYWGQGTLVTVSA VL: QIVLTQSPAIMSAFPGERVTMTCSASTSVRYMYWHQQKPGSSPRLLIYDTSNVASGVPVRFSGSGSGTSYSLTISRDEAMDAATYYCQQWSSFPRTFGGGTKLEIKR"
quantity = "koff"
observed_measurement = "4.53e-05"

[[record]]
binder = "Mutation 1-7 (antibody, V domains shown) VH: EVQLQQSGTELVRPGALVKLSCKASGFNIKDYYIHWVKQRPRQGLEWIGWIDPENGKTLYDPKFQDKASITSDTSTNTAYLQLRSLTSEDTAVYYCVTAYFRFVYWGQGTLVTVSA VL: QIVLTQSPAIMSAFPGERVTMTCSASSSVRYMYWHQQKPGSSPRLLIYDTSNLASGVPVRFSGSGSGTSYSLTISRDEAMDAATYYCQQWSSYPRTFGGGTKLEIKR"
quantity = "koff"
observed_measurement = "3.91e-05"


Q. Given the binder Mutation 1-18 (antibody, V domains shown) VH: EVQLQQSGTELVRPGALVKLSCKASGFNIKDYYVHWVKQRPRQGLEWIGWIDPENGKTLYDPKFQDKASITSDTSTNTAYLQLRSLTSEDTAVYYCVSAYVRFVYWGQGTLVTVSA VL: QIVLTQSPAIMSAFPGERVTMTCSASSSVRYMYWHQQKPGSSPRLLIYDTSNLASGVPVRFSGSGSGTSYSLTISRDEAMDAATYYCQQWSSTPRTFGGGTKLEIKR , what is its reported koff?
A. 3.99e-05
